Target: T1, 4Ig human B7-H3 (human, UniProt Q5ZPR3 29-466, limits assumed)
T1 construct: Soluble analyte in SPR; also called 4Ig-B7H3; 4Ig B7H3
T1 sequence: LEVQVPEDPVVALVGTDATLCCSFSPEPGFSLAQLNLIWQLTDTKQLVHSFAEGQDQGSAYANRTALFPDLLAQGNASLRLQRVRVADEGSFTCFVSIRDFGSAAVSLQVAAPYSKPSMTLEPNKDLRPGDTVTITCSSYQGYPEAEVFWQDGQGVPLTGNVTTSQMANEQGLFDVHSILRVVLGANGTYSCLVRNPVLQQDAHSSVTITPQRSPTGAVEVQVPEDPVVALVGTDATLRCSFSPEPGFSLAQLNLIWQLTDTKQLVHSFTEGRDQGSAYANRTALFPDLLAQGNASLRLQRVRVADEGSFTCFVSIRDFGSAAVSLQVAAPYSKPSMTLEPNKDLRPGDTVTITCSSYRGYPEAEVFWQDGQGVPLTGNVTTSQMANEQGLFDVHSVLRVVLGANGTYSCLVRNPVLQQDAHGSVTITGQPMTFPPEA
Assay: SPR, Carterra LSA; antibody captured on anti-human Fc lawn, 4Ig human B7-H3 as analyte
REPORTED_ENDPOINT: koff (s⁻¹)
Return type: number; implicit unit s⁻¹.

Answered cases to consult:
For this binder ( L3H5 (antibody, human IgG1, kappa, V domains shown, Humanized IgG1, HEK293; chains tied by the L/H names; also called YB8 L3 + YB8 H5) VH: QVQLVQSGAEVKKPGASVKVSCKASGYTFTNYDINWVRQATGQGLEWMGWIFPGDGSTQYNEKFQGRVTMTTNTSISTAYMELSSLRSEDTAVYYCARQTTATWFAYWGQGTLVTVSS VL: EIVMTQSPDFQSVTPKEKVTLTCRASQSISDYLHWYQQKPDQSPKLLIKYASQSISGVPSRFSGSGSGSDFTLTINSLEAEDAGVYYCQNGHSFPLTFGQGTKLEIKR ), measured koff is 0.00035

// koff lookup, binder = L4H6 (antibody, human IgG1, kappa, V domains shown, Humanized IgG1, HEK293; chains tied by the L/H names; also called YB8 L4 + YB8 H6) VH: QVQLQQSGAEVKKPGASVKLSCKASGYTFTNYDINWVRQATGQGLEWIGWIFPGDGSTQYAQKFQGRATLTTNTSISTAYMELSSLRSEDTAVYFCARQTTATWFAYWGQGTLVTVSS VL: EIVMTQSPDFQSVTPKEKVTLTCRASQSISDYLHWYQQKPDQSPKLLIKYASQSISGIPSRFSGSGSGTDFTLTINSVEAEDAGVYYCQNGHSFPLTFGQGTKLEIKR , result: 0.00042

Value of koff reported for the binder chimeric anti-B7H3 IgG (Chimeric Heavy Chain (Parental) + Chimeric Light chain (parental)) (antibody, V domains shown, Chimeric IgG1 with murine 8H9 variable domains, expressed in HEK293; also called Chimeric IgG; parental chimeric antibody) VH: QVQLQQSGAELVKPGASVKLSCKASGYTFTNYDINWVRQRPEQGLEWIGWIFPGDGSTQYNEKFKGKATLTTDTSSSTAYMQLSRLTSEDSAVYFCARQTTATWFAYWGQGTLVTVSA VL: DIVMTQSPATLSVTPGDRVSLSCRASQSISDYLHWYQQKSHESPRLLIKYASQSISGIPSRFSGSGSGSDFTLSINSVEPEDVGVYYCQNGHSFPLTFGAGTKLELKR is 0.00079

Lab note: next binder to report on.
L4H5 (antibody, human IgG1, kappa, V domains shown, Humanized IgG1, HEK293; chains tied by the L/H names; also called YB8 L4 + YB8 H5) VH: QVQLVQSGAEVKKPGASVKVSCKASGYTFTNYDINWVRQATGQGLEWMGWIFPGDGSTQYNEKFQGRVTMTTNTSISTAYMELSSLRSEDTAVYYCARQTTATWFAYWGQGTLVTVSS VL: EIVMTQSPDFQSVTPKEKVTLTCRASQSISDYLHWYQQKPDQSPKLLIKYASQSISGIPSRFSGSGSGTDFTLTINSVEAEDAGVYYCQNGHSFPLTFGQGTKLEIKR yielded koff of 0.0004

Taken from patent US20230312721A1.
